target system: DLA2 ΔLip (Chlamydomonas reinhardtii, UniProt A0A2K3DW88 116-494)
experiment summary: MST
readout label: Kd (nM)

INSERT INTO assay_data (binder, unit_annotation, val) VALUES
  ('UUUACGGAGAAAUUAAAACUUUAAAAAAAUUAACAUAUGACCAUGGAUC (ssRNA) [psbA 5''-UTR probe native]', 'nM', 107);

// data source = paper doi:10.1101/831339
